These data points were gathered from patent US9840512B2.

Provide the reported EC50 of each item.
Test target: UniProt O14842
Procedure details: Inositol Phosphate Turnover (IP1) Assay 1
Stated conditions: Human IP1 Assay 1, EC50, nM, HEK cells stably expressing human GPR40
Dear colleague, please return just the value in nM, with no unit written.

For CC#CC(CC(=O)O)c1ccc2c(c1)CCC(c1cccc(-c3c(C)noc3C)c1)O2 (mixture of isomers) the molecule record lists EC50 as 638

For Cc1cc(OCCS(C)(=O)=O)cc(C)c1-c1cccc(C2CCc3cc(CCC(=O)O)ccc3O2)c1 (racemic) the molecule record lists EC50 as 1700

For CC#C[C@@H](CC(=O)O)c1ccc2c(c1)CCC(c1ccc(OCc3ccccc3)cc1)O2 (mixture of isomers) the molecule record lists EC50 as 877

For CC#C[C@@H](CC(=O)O)c1ccc2c(c1)CCC(c1cc(-c3cccnc3C(F)(F)F)ccc1F)O2 (single isomer, unassigned) [Example 35] the molecule record lists EC50 as 31

For CC#C[C@@H](CC(=O)O)c1ccc2c(c1)CCC(c1cc(-c3cccnc3C(F)(F)F)ccc1F)O2 (mixture of isomers) [Example 31] the molecule record lists EC50 as 60

For CC#CC(CC(=O)O)c1ccc2c(c1)CCC(c1cc(-c3ccc(OC)nc3C)ccc1F)O2 (mixture of isomers) the molecule record lists EC50 as 58

For COc1ccc(F)c(-c2ccc(C3CCc4ccc(CCC(=O)O)cc4O3)cc2C2=CCCC2(C)C)c1 (racemic) the molecule record lists EC50 as 1020

----------
Provide the reported EC50 of each item.
Test target: human GPR40 (Homo sapiens, UniProt O14842)
Sequence (O14842 whole entry): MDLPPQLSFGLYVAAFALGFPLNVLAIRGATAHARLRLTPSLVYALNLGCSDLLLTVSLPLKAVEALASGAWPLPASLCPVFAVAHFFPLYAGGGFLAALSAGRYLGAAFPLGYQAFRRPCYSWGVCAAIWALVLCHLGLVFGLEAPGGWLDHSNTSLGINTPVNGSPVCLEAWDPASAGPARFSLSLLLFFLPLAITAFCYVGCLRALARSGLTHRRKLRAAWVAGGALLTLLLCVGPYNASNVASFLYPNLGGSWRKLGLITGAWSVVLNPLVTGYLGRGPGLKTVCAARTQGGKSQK
Procedure details: Inositol Phosphate Turnover (IP1) Assay 1
Stated conditions: Human IP1 Assay 1, EC50, nM, HEK cells stably expressing human GPR40
Dear colleague, please return just the value in nM, with no unit written.

For CC#CC(CC(=O)O)c1ccc2c(c1)CCC(c1cc(Br)ccc1F)O2 (mixture of isomers) [Example 28] the compound record lists EC50 as 536

For Cc1cccc(C)c1-c1cccc(C2CCc3cc(CCC(=O)O)ccc3O2)c1 (single isomer, unassigned) [Example 5] the compound record lists EC50 as 1670

For CC#C[C@@H](CC(=O)O)c1ccc2c(c1)CCC(c1cc(C3=CCCC3(C)C)ccc1F)O2 (mixture of isomers) [Example 33] the compound record lists EC50 as 1300

For CC(C)=CC(CC(=O)O)c1ccc2c(c1)CCC(c1cccc(-c3c(C)cccc3C)c1)O2 (mixture of isomers) [Example 44] the compound record lists EC50 as 6060

For CC#C[C@@H](CC(=O)O)c1ccc2c(c1)CCC(c1cccc(-c3cccc4c3c(C(F)(F)F)nn4C)c1)O2 (mixture of isomers) [Example 32] the compound record lists EC50 as 149

For CC#C[C@@H](CC(=O)O)c1ccc2c(c1)CCC(c1cc(-c3c(C)cccc3C)ccc1F)O2 (single isomer, unassigned) [Example 21] the compound record lists EC50 as 83

For CC#C[C@@H](CC(=O)O)c1ccc2c(c1)CCC(c1ccc(OCc3ccccc3)c(-c3c(C)cccc3C)c1)O2 (mixture of isomers) [Example 52] the compound record lists EC50 as 248

For CC#CC(CC(=O)O)c1ccc2c(c1)CCC(c1nc(-c3c(C)cccc3C)ccc1F)O2 (mixture of isomers) [Example 16] the compound record lists EC50 as 710
